# Test summary: inhibitors of poly I:C-induced TLR3 signaling, primary screen, cell-based, poly I:C stimulus, luciferase, 10K MLSCN set (AID 602277)
# Particulars: HEK293-TLR3 RL24 IRF3 luciferase reporter, at 10 µM, hits give high values
Catalogue of inhibition readings, one per entry.
Readout name: inhibition (%)

[[record]]
compound = "N=c1c[n+](N2CCOCC2)[n-]o1"
unit_abbrev = "%"
data_value = 43.7

[[record]]
compound = "O=C(C1=C(O)C(=O)N(c2ncccn2)C1c1cccc(Cl)c1)c1ccco1 (stereo not given)"
unit_abbrev = "%"
data_value = 1.21

[[record]]
compound = "C=CCn1c(N)c(C(=O)OC(C)(C)C)c2nc3ccccc3nc21"
unit_abbrev = "%"
data_value = -1.21

[[record]]
compound = "CC(=O)Nc1ccc(Oc2ccc3nc(C)[nH]c3c2)cc1"
unit_abbrev = "%"
data_value = -0.929

[[record]]
compound = "COC(=O)c1ccccc1NC(=O)CSc1nnc(-c2ccncc2)o1"
unit_abbrev = "%"
data_value = 19.8

[[record]]
compound = "CCCOc1cccc(C2/C(=C(/O)c3ccccc3)C(=O)C(=O)N2CCN(C)C)c1 (stereo not given)"
unit_abbrev = "%"
data_value = 19.2

[[record]]
compound = "Cc1nn(-c2ccccc2)c2c1C(=O)NC(=O)C(C)(C)C2"
unit_abbrev = "%"
data_value = 18.9

[[record]]
compound = "O=C1C(CCS(=O)c2ccccc2)C(=O)N(c2ccccc2)N1c1ccccc1 (stereo not given)"
unit_abbrev = "%"
data_value = 25.7

[[record]]
compound = "Cc1nnc2n(Cc3ccccc3)c(=O)c3c4c(sc3n12)COC(C(C)C)C4 (stereo not given)"
unit_abbrev = "%"
data_value = 3.4

[[record]]
compound = "N#CC1=C(N)N(c2ccccc2)C(c2ccccc2)C1(C#N)C#N (stereo not given)"
unit_abbrev = "%"
data_value = 17.3

[[record]]
compound = "Cc1c(NC(=O)c2coc(=O)c(Br)c2)c(=O)n(-c2ccccc2)n1C"
unit_abbrev = "%"
data_value = 56.8

[[record]]
compound = "O=C(C1CCCCC1)N1CC(=O)N2CCc3ccccc3C2C1 (stereo not given)"
unit_abbrev = "%"
data_value = 17.3

[[record]]
compound = "CCOC(=O)C1=C[C@]2(CC)CCCN3CCc4c(n1c1ccccc41)[C@@H]32"
unit_abbrev = "%"
data_value = 18.6

[[record]]
compound = "CCOc1ccc(S(=O)(=O)N(C)C)cc1-c1nc2c(C(C)(C)C)nn(C)c2c(=O)[nH]1"
unit_abbrev = "%"
data_value = -7.19

[[record]]
compound = "Cn1c(=O)c2[nH]cnc2n(C)c1=O"
unit_abbrev = "%"
data_value = 32.1

[[record]]
compound = "CC1CCc2cc(F)cc3c(O)c(C(=O)NCC4CCCO4)c(=O)n1c23 (stereo not given)"
unit_abbrev = "%"
data_value = 8.44

[[record]]
compound = "CNCCCN1c2ccccc2CCc2ccccc21"
unit_abbrev = "%"
data_value = 24.2

[[record]]
compound = "COc1ccc(OC)c(C2C(C#N)=C(N)Oc3cc(C)[nH]c(=O)c32)c1 (stereo not given)"
unit_abbrev = "%"
data_value = -12.4

[[record]]
compound = "Cn1c(-n2c(-c3ccco3)nc3ccccc3c2=O)nc2ccccc21"
unit_abbrev = "%"
data_value = 6.14

[[record]]
compound = "CCOc1ccccc1N1CCN(c2nc3ccccc3nc2C(C#N)C(=O)OC)CC1 (stereo not given)"
unit_abbrev = "%"
data_value = 16.1

[[record]]
compound = "Cc1ccc(C(=O)/C=C/Nc2cccc(O)c2)cc1"
unit_abbrev = "%"
data_value = -32.3

[[record]]
compound = "Clc1ccc2c(c1)C(N1CCNCC1)=Nc1ccccc1O2"
unit_abbrev = "%"
data_value = 23.6

[[record]]
compound = "CN(C)CCC=C1c2ccccc2CCc2ccccc21"
unit_abbrev = "%"
data_value = 51

[[record]]
compound = "CCOC(=O)C1CCN(c2nc3ccccc3nc2C(C#N)C(=O)OC(C)C)CC1 (stereo not given)"
unit_abbrev = "%"
data_value = -37.7

[[record]]
compound = "Cc1ccc2nc(C(F)(F)F)c(C#N)c(N)c2c1"
unit_abbrev = "%"
data_value = -10.8


----------
Catalogue of thallium flux slope readings, one per entry.
# Test summary: native HEK Tl+ uptake effects, second counter-screen – HEK cells, counterscreen 2, counter-screen for KCC2 modulator project, confirmation (AID 1718);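 note: run without ouabain in cells lacking the KCC2 cotransporter; slope of fluorescence scaled to its starting value between 10 and 20 s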
# Particulars: HEK293 parental, thallium flux FluoZin-2 fluorescence slope; at 10 µM
Some of the results follow. Inconclusive results are not listed.
Readout name: thallium flux slope

[[record]]
compound = "CC1CCCCN1S(=O)(=O)c1ccc(C(=O)Nc2nnc(-c3cccs3)o2)cc1 (centres undefined)"
readout_name = "thallium flux slope"
data_value = 0.0123

[[record]]
compound = "COc1ccc(-c2nc(CS(=O)CC(=O)N3CCc4ccccc4C3)c(C)o2)cc1 (centres undefined)"
readout_name = "thallium flux slope"
data_value = 0.00907

[[record]]
compound = "CCC(=O)NC(=Nc1nc2ccccc2s1)NC(=O)CC"
readout_name = "thallium flux slope"
data_value = 0.0859

[[record]]
compound = "CCCCn1c(=S)[nH]c2ncccc2c1=O"
readout_name = "thallium flux slope"
data_value = 0.0266

[[record]]
compound = "COc1cc(OC)cc(C(=O)NCCSCc2ccco2)c1"
readout_name = "thallium flux slope"
data_value = 0.0101

[[record]]
compound = "CCOc1cccc(/C=N/N2C(=O)CSC2=S)c1O"
readout_name = "thallium flux slope"
data_value = 0.0167

[[record]]
compound = "CCCOC(=O)CC1C(=O)NCCN1Cc1ccc(F)cc1 (centres undefined)"
readout_name = "thallium flux slope"
data_value = 0.00872

[[record]]
compound = "O=C(C1CCN(c2nnc(-n3cccc3)s2)CC1)N1CCc2ccccc2C1"
readout_name = "thallium flux slope"
data_value = 0.0107

[[record]]
compound = "CCOC(=O)CSc1nnc(CNC(=O)c2cccs2)n1-c1ccccc1"
readout_name = "thallium flux slope"
data_value = 0.0106

[[record]]
compound = "Cc1cccc(NS(=O)(=O)c2ccc(C)c(C(N)=O)c2)c1"
readout_name = "thallium flux slope"
data_value = 0.0102

[[record]]
compound = "Cc1ccc(NCc2n[nH]c(=S)n2-c2ccccc2)cc1Cl"
readout_name = "thallium flux slope"
data_value = 0.00946

[[record]]
compound = "O=C(Cn1c(-c2ccc(Cl)cc2)noc1=O)N1CCN(c2ccccc2F)CC1"
readout_name = "thallium flux slope"
data_value = 0.00981

[[record]]
compound = "Cc1ccc(C2CC(=O)NC(SCC(=O)OCc3ccccc3)=C2C#N)o1 (centres undefined)"
readout_name = "thallium flux slope"
data_value = 0.00974

[[record]]
compound = "COc1cccc(-c2nnc(NC(=O)c3ccc(S(=O)(=O)N(CC(C)C)CC(C)C)cc3)o2)c1"
readout_name = "thallium flux slope"
data_value = 0.0148

[[record]]
compound = "O=C(Nc1ccc2oc(-c3ccccc3F)nc2c1)c1ccco1"
readout_name = "thallium flux slope"
data_value = 0.00945

[[record]]
compound = "COc1ccc(C(=O)NN(C)c2nc(-c3ccccc3)cc(C)c2S(C)(=O)=O)cc1"
readout_name = "thallium flux slope"
data_value = 0.0107

[[record]]
compound = "COc1ccc([N+](=O)[O-])cc1NC(=O)COC(=O)/C=C/c1ccco1"
readout_name = "thallium flux slope"
data_value = 0.011

[[record]]
compound = "Brc1ccc(C2=CC(c3ccco3)n3ncnc3N2)cc1 (centres undefined)"
readout_name = "thallium flux slope"
data_value = 0.00724

[[record]]
compound = "C(=N\\n1cnnc1)/c1cccnc1"
readout_name = "thallium flux slope"
data_value = 0.0101

[[record]]
compound = "Cc1ccccc1NC(=S)NNC(=O)c1cccc(Br)c1"
readout_name = "thallium flux slope"
data_value = 0.0126

[[record]]
compound = "COc1ccccc1/C=C/C=N/n1c(-c2ccc(Cl)cc2Cl)n[nH]c1=S"
readout_name = "thallium flux slope"
data_value = 0.011

[[record]]
compound = "O=C(Cc1csc(Nc2nc(=S)[nH]c3ccccc23)n1)NCCCN1CCN(c2cccc(Cl)c2)CC1"
readout_name = "thallium flux slope"
data_value = 0.0172

[[record]]
compound = "COc1ccc(C(=O)NC(=S)NNC(=O)c2c(-c3ccccc3)noc2C)cc1"
readout_name = "thallium flux slope"
data_value = 0.0396

[[record]]
compound = "CS(=O)(=O)N(CC(=O)N1CCN(c2ccc(F)cc2)CC1)C1CCCCC1"
readout_name = "thallium flux slope"
data_value = 0.0102


----------
# Tgt: Alpha-2C adrenergic receptor (Homo sapiens)
# Test summary: modulators of alpha2C/GIRK thallium flux, primary screen, cell-based, HEK293 alpha2C/GIRK1/2 (AID 624);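 note: slope of fluorescence ratio to pre-addition baseline per second over 15 to 24 s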
# Particulars: thallium flux BTC fluorescence, at 10 µM, actives lie on both sides
Classify: label 1 when slope is strictly less than 0.005; label 0 when slope is not.

[[record]]
molecule = "CCC(=O)N[C@@H]1CC(C(C)(C)NC(=O)CC)CC=C1C (stereo partly specified)"
classification = "label 0"

[[record]]
molecule = "CCOC(=O)c1[nH]c2ccc(OC)cc2c1C"
classification = "label 1"

[[record]]
molecule = "COc1ccc(OC)c(C(O)c2coc3ccc(O)c(CN4CCOCC4)c23)c1 (stereo unspecified)"
classification = "label 1"

[[record]]
molecule = "O=c1oc2cc(O)ccc2c2oc3cc(O)ccc3c12"
classification = "label 1"

[[record]]
molecule = "COc1cc(-c2nn3c(C4CCCCC4)nnc3s2)cc(OC)c1OC"
classification = "label 0"

[[record]]
molecule = "CC1(C)Cc2c(sc(NC(=O)c3ccc(Br)o3)c2C#N)CO1"
classification = "label 0"

[[record]]
molecule = "CC(=O)[C@H]1CC[C@H]2[C@@H]3CCC4=CC(=O)CC[C@]4(C)[C@H]3[C@H](O)C[C@]12C"
classification = "label 1"

[[record]]
molecule = "COc1ccc(N2C(=O)CN=C2Nc2nc(C)cc(C)n2)cc1"
classification = "label 1"

[[record]]
molecule = "CCOP(=O)(c1ccccc1)c1nc(-c2ccccc2C)oc1N1CCCCC1 (stereo unspecified)"
classification = "label 1"

[[record]]
molecule = "COc1cc2c(C(=O)N3CCN(c4ccccc4)CC3)c(C)oc2cc1Br"
classification = "label 0"

[[record]]
molecule = "COc1ccc(-c2oc3ncn4nc(COc5ccccc5)nc4c3c2-c2ccc(OC)cc2)cc1"
classification = "label 0"

[[record]]
molecule = "CNC(=O)c1cc2c(ccc3ccccc32)oc1=N"
classification = "label 1"

[[record]]
molecule = "CCCCNC(=O)c1c(N)n(/N=C/c2cccnc2)c2nc3ccccc3nc12"
classification = "label 0"

[[record]]
molecule = "Cc1cc(C(F)(F)F)c(C#N)c(SCC(=O)NC2CC2)n1"
classification = "label 0"

[[record]]
molecule = "N#C/C(=C\\N1CCN(Cc2ccc3c(c2)OCO3)CC1)c1nc2ccccc2s1"
classification = "label 1"

[[record]]
molecule = "Cc1c(/C(O)=C2\\C(=O)C(=O)N(CCCN(C)C)C2c2ccccc2)cnn1-c1ccccc1 (stereo unspecified)"
classification = "label 0"

[[record]]
molecule = "CCc1c(C)c(C#N)c2nc3ccccc3n2c1-n1nc(C)cc1C"
classification = "label 0"

[[record]]
molecule = "CC[C@]1(O)CC2CN(CCc3c([nH]c4ccccc34)[C@@](C(=O)OC)(c3cc4c(cc3OC)N(C=O)[C@H]3[C@@](O)(C(=O)OC)[C@H](OC(C)=O)[C@]5(CC)C=CCN6CC[C@]43[C@@H]65)C2)C1 (stereo partly specified)"
classification = "label 0"

[[record]]
molecule = "COc1ccc(C2C=C(c3ccc(Cl)cc3)Nc3nc(NC(C)=O)nn32)cc1 (stereo unspecified)"
classification = "label 1"

[[record]]
molecule = "OC(CNCCCN1CCCCC1)COc1ccccc1 (stereo unspecified)"
classification = "label 1"

[[record]]
molecule = "CCn1cc(C(=O)O)c(=O)c2cc(F)c(N3CCNCC3)cc21"
classification = "label 0"

[[record]]
molecule = "COc1ccc(Cn2c(O)cc(=O)[nH]c2=O)cc1"
classification = "label 0"

[[record]]
molecule = "CC(C)C1C(C#N)=C(N)Oc2n[nH]c(C(C)(C)C)c21 (stereo unspecified)"
classification = "label 0"

